Exercise: for every item that follows, state its recorded cytotoxicity at 70.5 h.
# TEST_DESCRIPTION: Human HepG2 cell viability assay in 384 well format
# Assay type: toxicity, cell-based
# Set-up: dose 125 nL, time 70.5 hour; concentration not given beside the values
# CONDITION_INFO: HepG2 cells, read-out: Inhibition
Could you give me the number in %? Just the number is fine.

Item under review: COCC1CN(Cc2ccsc2)Cc2cnn(C)c21 (stereo unspecified) . Reported cytotoxicity at 70.5 h?
-2.85

Try CCN1CCN(S(=O)(=O)c2cn(C(C)C)cn2)c2ccccc21 next.
-1.25

Try CC(NC(=O)Nc1ccc(S(C)(=O)=O)cc1)c1ccc2c(c1)CC(=O)N2 (stereo unspecified) next.
-7.73

Try CCOCc1nc2c(c(N3CCCn4nc(C)cc4C3)n1)CCNCC2 next.
23.6

Try CCOc1ccc(CC(CNC(=O)c2ccoc2)C(N)=O)cc1 (stereo unspecified) next.
49.1

Try CCn1c(Cn2cncn2)nnc1C1CCN(Cc2ccncc2)CC1 next.
-6.34

###

# TEST_DESCRIPTION: Human HepG2 cell viability assay in 384 well format
# Type: toxicity, cell-based
# Design: dose 125 nL, time 70.5 hour; concentration not given beside the values
# CONDITION_INFO: HepG2 cells, read-out: Inhibition
QUANTITY_NAME: cytotoxicity at 70.5 h (%)
Could you give me the number in %? Just the number is fine.

Item under review: CC(C)CC(=O)N(C)Cc1nc(C(F)(F)F)cs1 . Reported cytotoxicity at 70.5 h?
-9.65

Try CCCc1nc(CN2CCN(C(C)c3nc(C4CC4)no3)CC2)no1 (stereo not drawn) next.
-5.86

Try COc1ccc(C(C)NC(=O)Nc2nnc(C)s2)c(OC)c1 (stereo not drawn) next.
-4.87

Try CC1(C)CC(N2Cc3nc(N)ncc3C2=O)CC(C)(C)N1 next.
-8

Try O=C(CCn1nc(C(F)(F)F)c(Cl)c1C1CC1)NN1CCOCC1 next.
-1.82

Try C[C@@H]1CN(c2nc(O)cc(Cc3ccccc3F)n2)C[C@H](C)O1 next.
19.5

Try CCc1cc(CN(C)C(=O)c2cnc3c(c2)nc(N)n3CC)on1 next.
-2.5

Try c1cnn(CC2CCCN2Cc2nc(-c3ccoc3)no2)c1 (stereo not drawn) next.
28.2

Try Cc1cccc(COc2ccccc2C(=O)N2CCC(C(N)=O)CC2)c1 next.
4.8

Try CCCc1n[nH]c(C2CN(C(=O)CCCn3ccnc3C)CCO2)n1 (stereo not drawn) next.
4.08

Try CC(C)CN1CCC(NC(=O)c2ccc(F)cc2Cl)CC1 next.
-2.96

Try CCn1cc(C(=O)Nc2ccc(C)cc2C(=O)NC)cn1 next.
-3.07

Try CCc1cc(NCCNc2cccnc2)n2nccc2n1 next.
-7.64

Try Cc1nnc([C@@]23CCO[C@@H]2CCN(Cc2ccc4c(c2)OCO4)C3)o1 next.
-2.95

Try O=C(NC[C@H]1OC[C@@H](NCc2ccccc2F)[C@@H]1O)Nc1ccccc1 next.
-3.35

Try Cc1ccc(CN2C[C@H]3C[C@H](C(=O)NCc4cccnc4)[C@@H](C2)O3)cc1 next.
37.6

Try O=C1CC(c2cccs2)c2snc(C(=O)O)c2N1 (stereo not drawn) next.
-9.35

Try Cc1nc(COC[C@H]2CCC[C@@]23CN(C(C)C)CCO3)cs1 next.
-6.88

Try COc1ccc(-c2nc(CN3CCCC3Cn3cccn3)no2)cc1 (stereo not drawn) next.
-0.173

Try Cc1nc(O)cc(C2CCCN(C(=O)CN(C)c3ccccc3)C2)n1 (stereo not drawn) next.
1.65

Try CN(CC1CCOC1)S(=O)(=O)c1cccc(C(=O)N2CCCCCC2)c1 (stereo not drawn) next.
-14.8

Try CC(C)c1noc(CCC(=O)NC2CCS(=O)(=O)C2)n1 (stereo not drawn) next.
0.473

Try O=c1n(CC2CCCCO2)nc(CC2CCNCC2)n1-c1ccccc1 (stereo not drawn) next.
-6.56
